- assayTarget: human Nav1.7 (Homo sapiens (Human), UniProt Q15858)
- Sequence (Q15858 other isoform, or with tags, fused parts or gaps): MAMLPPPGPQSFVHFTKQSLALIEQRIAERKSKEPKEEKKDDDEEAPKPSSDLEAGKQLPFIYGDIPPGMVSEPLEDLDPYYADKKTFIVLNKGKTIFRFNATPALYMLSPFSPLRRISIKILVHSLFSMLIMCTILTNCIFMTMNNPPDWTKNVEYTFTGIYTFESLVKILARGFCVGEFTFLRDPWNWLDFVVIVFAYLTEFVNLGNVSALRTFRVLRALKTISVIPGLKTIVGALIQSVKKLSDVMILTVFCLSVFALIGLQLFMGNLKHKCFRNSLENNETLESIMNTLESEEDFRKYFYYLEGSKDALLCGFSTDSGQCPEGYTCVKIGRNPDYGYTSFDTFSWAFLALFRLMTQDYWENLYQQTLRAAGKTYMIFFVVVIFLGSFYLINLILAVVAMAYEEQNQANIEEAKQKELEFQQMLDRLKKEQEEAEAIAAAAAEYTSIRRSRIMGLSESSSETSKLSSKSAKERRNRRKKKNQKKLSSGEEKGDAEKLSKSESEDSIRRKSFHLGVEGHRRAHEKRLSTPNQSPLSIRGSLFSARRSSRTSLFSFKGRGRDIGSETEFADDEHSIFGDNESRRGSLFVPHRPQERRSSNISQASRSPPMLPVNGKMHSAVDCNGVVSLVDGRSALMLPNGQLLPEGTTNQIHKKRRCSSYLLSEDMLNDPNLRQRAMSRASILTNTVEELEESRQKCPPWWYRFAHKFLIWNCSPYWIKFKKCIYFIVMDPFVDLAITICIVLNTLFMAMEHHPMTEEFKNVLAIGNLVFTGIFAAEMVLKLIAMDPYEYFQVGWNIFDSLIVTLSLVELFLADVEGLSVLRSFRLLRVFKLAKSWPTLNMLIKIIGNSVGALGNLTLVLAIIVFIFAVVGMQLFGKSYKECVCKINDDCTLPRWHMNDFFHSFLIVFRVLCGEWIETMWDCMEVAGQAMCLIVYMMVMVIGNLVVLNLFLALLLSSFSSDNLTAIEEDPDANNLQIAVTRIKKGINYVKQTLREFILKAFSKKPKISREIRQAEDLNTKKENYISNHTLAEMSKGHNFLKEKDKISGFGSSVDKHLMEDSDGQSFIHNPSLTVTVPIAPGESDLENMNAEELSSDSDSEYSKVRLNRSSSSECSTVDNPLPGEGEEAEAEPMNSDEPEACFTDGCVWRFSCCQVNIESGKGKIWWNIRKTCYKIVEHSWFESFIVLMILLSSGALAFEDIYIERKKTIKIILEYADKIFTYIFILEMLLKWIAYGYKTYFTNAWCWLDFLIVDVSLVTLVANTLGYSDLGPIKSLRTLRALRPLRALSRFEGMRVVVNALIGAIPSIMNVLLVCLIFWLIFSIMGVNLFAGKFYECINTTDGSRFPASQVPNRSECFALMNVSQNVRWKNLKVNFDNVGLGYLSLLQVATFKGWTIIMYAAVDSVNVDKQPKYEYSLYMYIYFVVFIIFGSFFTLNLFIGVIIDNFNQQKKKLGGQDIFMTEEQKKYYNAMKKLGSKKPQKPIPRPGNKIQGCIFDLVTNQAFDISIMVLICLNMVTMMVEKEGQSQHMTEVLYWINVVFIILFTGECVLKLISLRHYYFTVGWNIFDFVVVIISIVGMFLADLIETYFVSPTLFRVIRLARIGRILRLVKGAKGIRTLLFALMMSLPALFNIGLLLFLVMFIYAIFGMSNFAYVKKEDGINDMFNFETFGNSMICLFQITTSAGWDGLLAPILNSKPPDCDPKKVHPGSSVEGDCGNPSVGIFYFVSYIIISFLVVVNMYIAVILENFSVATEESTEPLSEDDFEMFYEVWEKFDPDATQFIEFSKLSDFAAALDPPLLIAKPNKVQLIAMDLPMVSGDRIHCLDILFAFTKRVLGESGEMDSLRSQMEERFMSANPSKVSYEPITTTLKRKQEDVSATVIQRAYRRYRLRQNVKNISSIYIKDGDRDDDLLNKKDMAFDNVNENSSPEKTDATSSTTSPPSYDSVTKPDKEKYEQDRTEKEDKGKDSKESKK
- runDescription: FLIPR or FLIPR TETRA sodium dye assay with KCl and test article pre-incubation
- Assay type: cell-based
reportedEndpoint: IC50 (nM)
State just the number; it will be interpreted in nM.

So what does the record say about IC50 for CCOC(=O)[C@@H](O)[C@H](O)c1cccc(-c2ccc(Oc3ccc(C(F)(F)F)c(C#N)c3)cc2)n1 ? 246

* * *

- assayTarget: human Nav1.7 (Homo sapiens (Human))
- runDescription: FLIPR or FLIPR TETRA sodium dye assay with KCl and test article pre-incubation
- Assay type: cell-based
- conditionInfo: read-out: FLIPR Nav 1.7 IC50 (μM) ± SEM
reportedEndpoint: IC50 (µM)
Form entry: value (µM) — number only.

NC(=O)[C@@H](O)[C@H](O)c1cn(-c2ccc(Oc3ccc(C(F)(F)F)cn3)cc2)c2ccccc12; 0.193
NC(=O)[C@H](O)[C@@H](O)c1cccc(-c2ccc(Oc3ccc(Cl)cn3)cc2)n1; 1.44
N#Cc1cc(Oc2ccc(-c3cccc([C@@H](O)[C@H](O)C(N)=O)n3)cc2)ccc1C(F)(F)F; 0.304
NC(=O)[C@@H](O)[C@H](O)c1cccc(-c2ccc(Oc3ccc(Cl)cn3)cc2)n1; 1.19
NC(=O)[C@H](O)[C@@H](O)c1cccc(-c2ccc(Oc3ccc(F)cc3)cc2)n1; 1.84

Request body: readout IC50, system human Nav1.7 (Homo sapiens (Human)), query NC(=O)[C@H](O)[C@@H](O)c1cn(-c2ccc(Oc3ccc(C(F)(F)F)cn3)cc2)c2ccccc12 . Return the value. 0.314

NC(=O)[C@@H](O)[C@H](O)c1cccc(-c2ccc(Oc3ccc(F)cc3)cc2)n1 , same question. 1.41

How about this compound: N#Cc1cc(Oc2ccc(-c3cccc([C@H](O)[C@@H](O)C(N)=O)n3)cc2)ccc1C(F)(F)F 0.244
